Test system: MvaT
experimentDescription: PBM 8-mer E-score (mean of HK and ME arrays) (E-score (dimensionless, -0.5 to 0.5)); higher = stronger relative binding preference
The full ranking holds about 33,000 sequences; the median of “E-score (dimensionless, -0.5 to 0.5)” is about -0.058, and the highest 2% start at about 0.35. This excerpt belongs to a sample that is enriched for the highest values.
Rule: PBM 8-mer E-score under 0.3 gives criterion not met, otherwise criterion met.

[
  {
    "sequenceText": "GAAAATAA",
    "categoryLabel": "criterion met"
  },
  {
    "sequenceText": "AAAAGTTC",
    "categoryLabel": "criterion not met"
  },
  {
    "sequenceText": "ATATACTA",
    "categoryLabel": "criterion met"
  },
  {
    "sequenceText": "AAAAAAAA",
    "categoryLabel": "criterion not met"
  },
  {
    "sequenceText": "TTATTGAA",
    "categoryLabel": "criterion not met"
  },
  {
    "sequenceText": "AATATACC",
    "categoryLabel": "criterion met"
  },
  {
    "sequenceText": "AAAAGTTG",
    "categoryLabel": "criterion not met"
  },
  {
    "sequenceText": "CATAGTTA",
    "categoryLabel": "criterion not met"
  },
  {
    "sequenceText": "AACGCGGA",
    "categoryLabel": "criterion not met"
  },
  {
    "sequenceText": "AATATACA",
    "categoryLabel": "criterion met"
  },
  {
    "sequenceText": "TATCGAAA",
    "categoryLabel": "criterion not met"
  },
  {
    "sequenceText": "AATACACG",
    "categoryLabel": "criterion not met"
  },
  {
    "sequenceText": "AAAAATAG",
    "categoryLabel": "criterion not met"
  },
  {
    "sequenceText": "CTATTTGC",
    "categoryLabel": "criterion not met"
  },
  {
    "sequenceText": "ATATACTC",
    "categoryLabel": "criterion met"
  },
  {
    "sequenceText": "ATATTTGC",
    "categoryLabel": "criterion met"
  },
  {
    "sequenceText": "AAAAATAA",
    "categoryLabel": "criterion met"
  },
  {
    "sequenceText": "GTACTATA",
    "categoryLabel": "criterion met"
  },
  {
    "sequenceText": "GAAAGTTA",
    "categoryLabel": "criterion met"
  },
  {
    "sequenceText": "GGGACGGA",
    "categoryLabel": "criterion not met"
  },
  {
    "sequenceText": "GTATACTA",
    "categoryLabel": "criterion met"
  },
  {
    "sequenceText": "AATATACG",
    "categoryLabel": "criterion met"
  },
  {
    "sequenceText": "CTATACTC",
    "categoryLabel": "criterion not met"
  },
  {
    "sequenceText": "AGATCTCC",
    "categoryLabel": "criterion not met"
  },
  {
    "sequenceText": "TATATACA",
    "categoryLabel": "criterion met"
  },
  {
    "sequenceText": "AGTATACC",
    "categoryLabel": "criterion not met"
  },
  {
    "sequenceText": "GAAAAAAA",
    "categoryLabel": "criterion not met"
  },
  {
    "sequenceText": "AAAAGTTT",
    "categoryLabel": "criterion met"
  },
  {
    "sequenceText": "CTGGCAAC",
    "categoryLabel": "criterion not met"
  },
  {
    "sequenceText": "AATACACA",
    "categoryLabel": "criterion not met"
  },
  {
    "sequenceText": "GCATACTA",
    "categoryLabel": "criterion not met"
  },
  {
    "sequenceText": "AGTGCGCA",
    "categoryLabel": "criterion not met"
  },
  {
    "sequenceText": "GATAGTTA",
    "categoryLabel": "criterion met"
  },
  {
    "sequenceText": "ATACTATA",
    "categoryLabel": "criterion met"
  },
  {
    "sequenceText": "CTATACTA",
    "categoryLabel": "criterion not met"
  },
  {
    "sequenceText": "AATAGTTA",
    "categoryLabel": "criterion met"
  },
  {
    "sequenceText": "AAAAATAC",
    "categoryLabel": "criterion not met"
  },
  {
    "sequenceText": "GGGCCACC",
    "categoryLabel": "criterion not met"
  },
  {
    "sequenceText": "ACAGGGGT",
    "categoryLabel": "criterion not met"
  },
  {
    "sequenceText": "AAAAGTCA",
    "categoryLabel": "criterion not met"
  },
  {
    "sequenceText": "AATATACT",
    "categoryLabel": "criterion met"
  },
  {
    "sequenceText": "TAAAATCA",
    "categoryLabel": "criterion not met"
  },
  {
    "sequenceText": "GAGATTAC",
    "categoryLabel": "criterion not met"
  },
  {
    "sequenceText": "TAAAATTA",
    "categoryLabel": "criterion not met"
  },
  {
    "sequenceText": "TAAAATAA",
    "categoryLabel": "criterion met"
  }
]

---

Tested on: MvaT
experimentDescription: PBM 8-mer E-score (mean of HK and ME arrays) (E-score (dimensionless, -0.5 to 0.5)); higher = stronger relative binding preference
In all, about 33,000 sequences were measured (“E-score (dimensionless, -0.5 to 0.5)”: median about -0.058, highest 2% from about 0.35 on). The sample holds the highest values, similar sequences and a random draw of the others, so the mix is not that of the screen.
The following sequences are shown together with reported PBM 8-mer E-score values.
measuredEndpoint: PBM 8-mer E-score

[
  {
    "sequenceText": "AGTTAACG",
    "measuredEndpoint": "PBM 8-mer E-score",
    "val": 0.204
  },
  {
    "sequenceText": "GAACATTC",
    "measuredEndpoint": "PBM 8-mer E-score",
    "val": -0.0126
  },
  {
    "sequenceText": "CTTAATTC",
    "measuredEndpoint": "PBM 8-mer E-score",
    "val": 0.281
  },
  {
    "sequenceText": "AGTTAACT",
    "measuredEndpoint": "PBM 8-mer E-score",
    "val": 0.377
  },
  {
    "sequenceText": "CGTTAACA",
    "measuredEndpoint": "PBM 8-mer E-score",
    "val": 0.114
  },
  {
    "sequenceText": "ACGTATGA",
    "measuredEndpoint": "PBM 8-mer E-score",
    "val": -0.1
  },
  {
    "sequenceText": "CCTGCACG",
    "measuredEndpoint": "PBM 8-mer E-score",
    "val": -0.224
  },
  {
    "sequenceText": "TCGAATCA",
    "measuredEndpoint": "PBM 8-mer E-score",
    "val": -0.0287
  },
  {
    "sequenceText": "AGCCGCCT",
    "measuredEndpoint": "PBM 8-mer E-score",
    "val": -0.243
  },
  {
    "sequenceText": "CTGAATTA",
    "measuredEndpoint": "PBM 8-mer E-score",
    "val": 0.266
  },
  {
    "sequenceText": "CACTGCTC",
    "measuredEndpoint": "PBM 8-mer E-score",
    "val": -0.18
  },
  {
    "sequenceText": "GTAATCTA",
    "measuredEndpoint": "PBM 8-mer E-score",
    "val": 0.151
  },
  {
    "sequenceText": "GCCTACGA",
    "measuredEndpoint": "PBM 8-mer E-score",
    "val": -0.271
  },
  {
    "sequenceText": "CGTGAAGC",
    "measuredEndpoint": "PBM 8-mer E-score",
    "val": -0.218
  },
  {
    "sequenceText": "ATTAATTA",
    "measuredEndpoint": "PBM 8-mer E-score",
    "val": 0.461
  },
  {
    "sequenceText": "CAACCCGA",
    "measuredEndpoint": "PBM 8-mer E-score",
    "val": -0.0421
  },
  {
    "sequenceText": "ATGAATTA",
    "measuredEndpoint": "PBM 8-mer E-score",
    "val": 0.295
  },
  {
    "sequenceText": "CTCAATTA",
    "measuredEndpoint": "PBM 8-mer E-score",
    "val": 0.234
  },
  {
    "sequenceText": "TGTTAACA",
    "measuredEndpoint": "PBM 8-mer E-score",
    "val": 0.33
  },
  {
    "sequenceText": "AGTAATTC",
    "measuredEndpoint": "PBM 8-mer E-score",
    "val": 0.144
  },
  {
    "sequenceText": "CTATTGTC",
    "measuredEndpoint": "PBM 8-mer E-score",
    "val": 0.12
  },
  {
    "sequenceText": "AAGCATAG",
    "measuredEndpoint": "PBM 8-mer E-score",
    "val": -0.033
  }
]
